Method Notes: Biodistribution of CR8 to mouse organs after oral administration
Format: in vivo, mice
Measurement Conditions: female, BALB/c, mouse; Spleen, single oral 100 mg/kg
Method: CR8 was dissolved in DMSO: 50 mM HCl (10:90 v/v). The first group of mice received i.v. doses of CR8 (50 mg/kg body weight), the second received oral doses of CR8 (100 mg/kg body weight) and three control mice received vehicle alone. […] Bone marrow was flushed from both femurs and mononuclear cells were counted and frozen. […] Nucleated cells were counted using Türk solution and bone marrow was stored at −20°C until assay. […]
Measured Property: Cmax
Record the result as number plus unit.

The reported value for CC[C@H](CO)Nc1nc(NCc2ccc(-c3ccccn3)cc2)c2ncn(C(C)C)c2n1 in terms of Cmax is 27700 ng/g
